All values here come from paper PMC5790683.

Experiment: Pharmacokinetic study in healthy male subjects after oral desmopressin
Type: in vivo
Settings: human, plasma, 0.4 mg
Measurement name: half-life (h)
Report only the number, with the unit h understood.

Q: Which half-life value belongs to NC(=O)CC[C@@H]1NC(=O)[C@H](Cc2ccccc2)NC(=O)[C@H](Cc2ccc(O)cc2)NC(=O)CCSSC[C@@H](C(=O)N2CCC[C@H]2C(=O)N[C@H](CCCN=C(N)N)C(=O)NCC(N)=O)NC(=O)[C@H](CC(N)=O)NC1=O ?
Result: 3.48
